molecular target: human metabotropic glutamate receptor 5 (hmGluR5) (Homo sapiens, UniProt P41594); construct: expressed in transfected cells; experiment: Calcium mobilization (FLIPR) assay for negative allosteric modulation, EC80 glutamate, hmGluR5 in HEK 293; assay type: cell-based; conditions: HEK293; hmGluR5, inhibition of EC80 glutamate response; read-out: FLIPR maximum inhibition
Sequence (P41594 21-1212): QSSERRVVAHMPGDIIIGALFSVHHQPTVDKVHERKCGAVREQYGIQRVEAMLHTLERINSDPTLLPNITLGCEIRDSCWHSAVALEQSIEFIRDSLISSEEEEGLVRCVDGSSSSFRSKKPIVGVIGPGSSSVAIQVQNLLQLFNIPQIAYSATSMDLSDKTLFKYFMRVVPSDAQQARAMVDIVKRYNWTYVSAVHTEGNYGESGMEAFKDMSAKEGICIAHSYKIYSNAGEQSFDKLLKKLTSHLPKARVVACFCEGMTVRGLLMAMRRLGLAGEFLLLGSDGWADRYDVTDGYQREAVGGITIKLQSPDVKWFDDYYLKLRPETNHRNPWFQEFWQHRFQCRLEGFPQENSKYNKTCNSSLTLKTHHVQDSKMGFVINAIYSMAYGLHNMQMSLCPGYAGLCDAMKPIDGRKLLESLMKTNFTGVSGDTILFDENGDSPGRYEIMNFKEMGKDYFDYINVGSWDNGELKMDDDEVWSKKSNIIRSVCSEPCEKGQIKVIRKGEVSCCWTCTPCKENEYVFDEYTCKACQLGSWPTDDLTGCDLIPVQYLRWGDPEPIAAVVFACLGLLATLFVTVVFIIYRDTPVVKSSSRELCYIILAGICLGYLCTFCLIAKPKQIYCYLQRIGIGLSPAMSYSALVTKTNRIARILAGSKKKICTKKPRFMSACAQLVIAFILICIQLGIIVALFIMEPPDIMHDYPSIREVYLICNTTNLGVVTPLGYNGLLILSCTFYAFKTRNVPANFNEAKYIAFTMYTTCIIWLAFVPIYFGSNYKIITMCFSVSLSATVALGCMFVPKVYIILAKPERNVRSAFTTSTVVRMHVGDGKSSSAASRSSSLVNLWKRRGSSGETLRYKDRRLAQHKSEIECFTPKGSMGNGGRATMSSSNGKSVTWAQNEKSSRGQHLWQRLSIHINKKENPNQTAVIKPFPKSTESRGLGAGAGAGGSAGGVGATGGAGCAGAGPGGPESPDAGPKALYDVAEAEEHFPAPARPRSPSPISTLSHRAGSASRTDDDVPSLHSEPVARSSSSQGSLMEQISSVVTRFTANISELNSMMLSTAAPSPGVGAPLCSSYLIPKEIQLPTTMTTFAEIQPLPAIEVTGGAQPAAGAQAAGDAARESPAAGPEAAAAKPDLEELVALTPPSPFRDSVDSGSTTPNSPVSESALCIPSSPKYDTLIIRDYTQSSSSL
Assay readout: Emax

>>> test_result("Cc1cc(N2CC[C@]3(CCC[C@H](NC(=O)c4cccc(F)c4)C3)C2=O)ccn1 (relative stereo)")
"73 to 95%"
>>> test_result("O=C(N[C@H]1CCC[C@]2(CCN(c3ccnc(C(F)(F)F)n3)C2=O)C1)c1cccc(F)c1 (relative stereo)")
"47 to 93%"

Challenge: State the recorded Emax for this entry: O=C(N[C@H]1CC(F)(F)C[C@]2(CCN(c3cccc(F)c3)C2=O)C1)c1ccccn1 (single isomer, unassigned)
Response given: 88 to 93%

* * *

Biological target: human metabotropic glutamate receptor 5 (hmGluR5) (Homo sapiens, UniProt P41594)
Construct: expressed in transfected cells
Test: Calcium mobilization (FLIPR) assay for negative allosteric modulation, EC80 glutamate, hmGluR5 in HEK 293
Assay type: cell-based
Settings: HEK293; hmGluR5, inhibition of EC80 glutamate response; read-out: FLIPR maximum inhibition
Description: The cDNA for rat metabotropic glutamate receptor 5 (rmGluR5) and the cDNA for human metabotropic glutamate receptor 5 (hmGluR5) were generous gifts from S. Nakanishi (Kyoto University, Kyoto, Japan). […] Basal fluorescence is monitored in a fluorometric imaging plate reader (FLIPR) (Molecular Devices, Sunnyvale, Calif.) with an excitation wavelength of 488 nm and an emission range of 500 to 560 nm. […] Basal readings derived from negative controls were subtracted from all samples. […]
Assay readout: Emax

Challenge: For O=C(N[C@H]1CCC[C@]2(CCN(c3cccc(F)c3)C2=O)C1)c1ccncc1 (relative stereo) , what is its reported Emax?
Response given: 73 to 95%

* * *

Reported values of Emax for individual entries
target: human metabotropic glutamate receptor 5 (hmGluR5) (Homo sapiens, UniProt P41594); construct: expressed in transfected cells; assay: Calcium mobilization (FLIPR) assay for negative allosteric modulation, EC80 glutamate, hmGluR5 in HEK 293; type: cell-based; conditions: HEK293; hmGluR5, inhibition of EC80 glutamate response; read-out: FLIPR maximum inhibition

Below are worked cases with known answers.
>>> test_result("O=C1c2ccccc2CN1C1CCCC2(CCN(c3cccc(Cl)c3)C2=O)C1 (single isomer, unassigned)")
"47 to 93%"
>>> test_result("Cc1nccc(N2CC[C@]3(CCC[C@H](NC(=O)c4ccc(F)c(F)c4)C3)C2=O)n1 (relative stereo)")
"73 to 95%"
>>> test_result("Cc1cccc(C(=O)N[C@@H]2CC(F)(F)C[C@@]3(CCN(c4ccc(F)cn4)C3=O)C2)n1 (racemic)")
"47 to 93%"
>>> test_result("O=C(N[C@H]1CC(F)(F)C[C@]2(CCN(c3cc(F)cc(F)c3)C2=O)C1)c1ccccn1 (single isomer, unassigned)")
"47 to 93%"

Now take the following compound into account.
Challenge: Please tell me: Emax of Cc1cncc(C(=O)N[C@H]2CCC[C@]3(CCN(c4cc(-c5ccc(F)cc5)ncn4)C3=O)C2)n1 (relative stereo) , system human metabotropic glutamate receptor 5 (hmGluR5) (Homo sapiens, UniProt P41594)?
Response given: 73 to 95%

Reference source: patent US9359297B2
